# TARGET DESC: HCV NS5B polymerase (His-tagged, C-terminal 21 amino acid deleted NS5B, HC-J4) (Hepatitis C virus genotype 1b, UniProt O92972)
# Construct: The cDNA encoding NS5B amino acid 1-570 (HC-J4, genotype 1b); His tag (His6, from pET-21b) (C); made in house; host or cells: E. coli BL21 (DE3)
# Sequence (O92972 2417-3000, looked up, stated change not applied): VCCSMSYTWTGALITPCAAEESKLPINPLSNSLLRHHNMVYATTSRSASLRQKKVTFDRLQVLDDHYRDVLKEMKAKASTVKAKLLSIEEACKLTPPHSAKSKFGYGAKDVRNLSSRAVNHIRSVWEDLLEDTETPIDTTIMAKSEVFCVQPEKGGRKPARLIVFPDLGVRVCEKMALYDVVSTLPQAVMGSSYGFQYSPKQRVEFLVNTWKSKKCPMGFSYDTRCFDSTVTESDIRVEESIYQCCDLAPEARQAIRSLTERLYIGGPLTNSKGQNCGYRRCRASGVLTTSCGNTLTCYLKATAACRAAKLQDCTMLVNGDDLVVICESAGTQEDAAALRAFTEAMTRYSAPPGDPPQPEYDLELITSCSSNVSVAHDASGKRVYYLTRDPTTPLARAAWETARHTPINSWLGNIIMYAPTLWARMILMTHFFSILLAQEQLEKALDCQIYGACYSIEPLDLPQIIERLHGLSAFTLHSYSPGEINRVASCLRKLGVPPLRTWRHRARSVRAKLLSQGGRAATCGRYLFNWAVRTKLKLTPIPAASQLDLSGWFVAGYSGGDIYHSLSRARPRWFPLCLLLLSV
# METHOD: NS5b polymerase assay (biochemical RdRp assay, 3H-GTP incorporation, SPA beads)
# Set-up: species or system HCV genotype 1b
# CONDITIONS USED: NS5B Polymerase Assay IC50, 200 nM enzyme, 3H-GTP incorporation, 2 h at 25° C.
READOUT NAME: IC50 (µM)
A number alone suffices; assume µM.

Read off the recorded IC50 for CC(=O)N1c2ccccc2NC2=C(C(=O)CC(C)(C)C2)C1c1ccc(Oc2ccccc2)cc1 (stereo not shown) [compound 134]
47.3

Please indicate IC50 recorded for CC(=O)N1c2ccccc2N(Cc2ccccc2)C2=C(C(=O)CC(C)(C)C2)C1c1ccc(Cl)cc1Cl (stereo not shown) [compound 323]
53.8

====

# TARGET DESC: HCV NS5B polymerase (His-tagged, C-terminal 21 amino acid deleted NS5B, HC-J4) (Hepatitis C virus genotype 1b, UniProt O92972)
# Construct: The cDNA encoding NS5B amino acid 1-570 (HC-J4, genotype 1b); His tag (His6, from pET-21b) (C); made in house; host or cells: E. coli BL21 (DE3)
# METHOD: NS5b polymerase assay (biochemical RdRp assay, 3H-GTP incorporation, SPA beads)
# Design: species or system HCV genotype 1b
# CONDITIONS USED: NS5B Polymerase Assay IC50, 200 nM enzyme, 3H-GTP incorporation, 2 h at 25° C.
# Description: The compounds of formula (I) were tested for anti-HCV activity in an assay determining their activity against NS5b polymerase and in an HCV replicon assay The cDNA encoding NS5B amino acid 1-570 (HC-J4, genotype 1b, pCV-J4L6S, genebank accession number AF054247) was subcloned into the Nhe I and Xho I restriction sites of pET-21b. Expression of the subsequent His-tagged C-terminal 21 amino acid deleted NS5B was performed as follows: […]
pIC50: −log10 of the molar value.
Would you mind telling me the reported pIC50 of each entry?

Specify reported pIC50 for the compound shown: CC(=O)N1c2ccccc2NC2=C(C(=O)CC(C)(C)C2)C1c1cc(Cl)c(OCc2ccccc2)c(Cl)c1 (centres unmarked)
4.79

Give a short answer stating reported pIC50 for CC(C)NC(=O)N1c2ccccc2NC2=C(C(=O)CC(C)(C)C2)C1c1ccc(Cl)cc1Cl (centres unmarked) .
5.29

Identify the reported pIC50 for the following entry. CC(C)Oc1ccc(C2C3=C(CC(C)(C)CC3=O)Nc3ccccc3N2C(=O)C(F)(F)F)cc1 (centres unmarked)
< 4.37

Input CC1(C)CC(=O)C2=C(C1)Nc1ccccc1N(C(=O)C(F)(F)F)C2c1ccc2c(c1)OCO2 (centres unmarked) , output reported pIC50.
< 4.37

For CC(=O)N1c2ccccc2NC2=C(C(=O)CC(C)(C)C2)C1c1ccc(F)cc1 (centres unmarked) , write its pIC50.
< 4.37

Identify measured pIC50 corresponding to CC1(C)CC(=O)C2=C(C1)Nc1ccccc1N(C(=O)Cc1ccccc1)C2c1cccc(Cl)c1 (centres unmarked)
< 4.37

Please give the documented pIC50 of CC(=O)N1c2ccccc2NC2=C(C(=O)CC(C)(C)C2)C1c1ccc(OCc2ccccn2)cc1 (centres unmarked)
5.10

Tell me measured pIC50 for CC1(C)CC(=O)C2=C(C1)Nc1ccccc1N(C(=O)Cc1ccccc1)C2c1ccc2c(c1)OCO2 (centres unmarked) please.
< 4.37
